- Read-out: Interleukin-6 (IL6), IL6 (gene 3569)
- Experimental Protocol: BSK_CASM3C_IL6: BioMAP Diversity Plus: CASM3C Assay for Interleukin-6 (IL6) Biomarker Activity for (AID 2283040)
- Measurement Context: primary human coronary artery smooth muscle cells; actives raise or lower the signal
Activity calls are given as the source filed them. How the source made its calls: active means hit-call score of the fitted dose curve at least 0.9, where 1 is the maximum; inactive means score below 0.9.
Quantity Kind: outcome

# Molecule, Result
data = [
    ("CS(=O)(=O)c1ccc(C(=O)C2C(=O)CCCC2=O)c([N+](=O)[O-])c1", "inactive"),
    ("C=CCOC(=O)C(C)(C)OC(=O)c1cc(-n2c(=O)cc(C(F)(F)F)n(C)c2=O)ccc1Cl", "inactive"),
    ("CN/C(=N\\[N+](=O)[O-])NCc1cnc(Cl)s1", "inactive"),
    ("Cc1cnc(C2=NC(C)(C(C)C)C(=O)N2)c(C(=O)O)c1 (stereo not given)", "inactive"),
    ("COCC(=O)N(c1c(C)cccc1C)C(C)C(=O)OC (stereo not given)", "inactive"),
]

###

- System Tested: Bile acid receptor (Homo sapiens)
- Experimental Protocol: ATG_FXR_TRANS: Attagene TRANS-FACTORIAL HepG2 Assay for Farnesoid X Receptor (FXR) (AID 2282979);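 further: hits raise reporter mRNA above DMSO so AC50 marks FXR activation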
- Measurement Context: HepG2 Attagene TRANS FXR-GAL4 reporter transcription
- Procedure: ATG_TRANS is a cell-based, multiplexed-readout assay that uses HepG2, a human liver cell line, with measurements taken at 24 hours after chemical dosing in a 24-well plate.ATG_FXR_TRANS is one of 30 assay component(s) measured or calculated from the ATG_TRANS assay. […] This assay endpoint, ATG_FXR_TRANS, was analyzed in the positive analysis fitting direction relative to DMSO as the negative control and baseline of activity. […]
Inconclusive results are not listed. Activity calls are given as the source filed them. Rule for the calls: active = hit-call score of the fitted dose curve at least 0.9, where 1 is the maximum; inconclusive = response in the unintended direction; inactive = score below 0.9.

# Compound, System Tested, outcome
records = [
    ("Cc1nc(N(C)C)nc(OC(=O)N(C)C)c1C", "Bile acid receptor (Homo sapiens)", "inactive"),
    ("CC1(C)C(C(=O)OC(C#N)c2cccc(Oc3ccccc3)c2)C1(C)C (stereo unspecified)", "Bile acid receptor (Homo sapiens)", "inactive"),
    ("COP(=S)(OC)Oc1ccc([N+](=O)[O-])c(C)c1", "Bile acid receptor (Homo sapiens)", "inactive"),
    ("CN=C=S", "Bile acid receptor (Homo sapiens)", "inactive"),
    ("CCOc1nc(F)cc2nc(S(=O)(=O)Nc3c(Cl)cccc3Cl)nn12", "Bile acid receptor (Homo sapiens)", "inactive"),
    ("CNC(=O)Oc1cccc2ccccc12", "Bile acid receptor (Homo sapiens)", "inactive"),
]

###

- Read-out: CFLAR gene, CFLAR (gene 8837)
- Experimental Protocol: LTEA_HepaRG_CFLAR: Life Technologies and Expression Analysis (LTEA) Assay for CFLAR gene using HepaRG (AID 2283455)
- Measurement Context: mRNA level, 48 h; actives raise or lower the signal
The source made the active and inactive calls. Rule for the calls: active = hit-call score of the fitted dose curve at least 0.9, where 1 is the maximum; inactive = score below 0.9.
Outcomes: True = active, False = inactive

# Compound, Category
records = [
    ("COC(=O)NC(=S)Nc1ccccc1NC(=S)NC(=O)OC", "False"),
    ("CC1(C)CCC(=Cc2ccc(Cl)cc2)C1(O)Cn1cncn1 (stereo not given)", "False"),
    ("Clc1cccc(C(Cl)(Cl)Cl)n1", "False"),
    ("CS(=O)(=O)c1cc(C(F)(F)F)ccc1C(=O)c1cnoc1C1CC1", "False"),
    ("CCC(C)n1c(=O)[nH]c(C)c(Br)c1=O (stereo not given)", "False"),
    ("Cc1ccc(N=CN(C)C=Nc2ccc(C)cc2C)c(C)c1", "False"),
    ("CN=C=S", "False"),
    ("COc1cc(Cl)c(OC)cc1Cl", "False"),
    ("CC(C)N1C(=O)c2ccccc2NS1(=O)=O", "False"),
    ("Nc1cnn(-c2ccccc2)c(=O)c1Cl", "False"),
    ("COP(=O)(OC)O/C(C)=C/C(=O)N(C)C", "False"),
    ("OC(c1ccc(Cl)cc1)(c1ccc(Cl)cc1)C(Cl)(Cl)Cl", "False"),
    ("CCCC(=NOCC)C1=C(O)CC(CC(C)SCC)CC1=O (stereo not given)", "False"),
    ("CCOc1nc(C(Cl)(Cl)Cl)ns1", "True"),
    ("C=CCOC(=O)C(C)(C)OC(=O)c1cc(-n2c(=O)cc(C(F)(F)F)n(C)c2=O)ccc1Cl", "False"),
]

###

- Read-out: catalase (CAT), CAT (gene 847)
- Experimental Protocol: LTEA_HepaRG_CAT: Life Technologies and Expression Analysis (LTEA) Assay for catalase (CAT) using HepaRG (AID 2283452)
- Measurement Context: mRNA level, 48 h; actives raise or lower the signal
Active and inactive are the calls of the source. Rule for the calls: active = hit-call score of the fitted dose curve at least 0.9, where 1 is the maximum; inactive = score below 0.9.
Labels: active, inactive

# Molecule, Category
rows = [
    ("C=C(C)CN(CC)c1c([N+](=O)[O-])cc(C(F)(F)F)cc1[N+](=O)[O-]", "inactive"),
    ("CNC(=O)Oc1cccc2ccccc12", "inactive"),
    ("N#Cc1c[nH]cc1-c1cccc2c1OC(F)(F)O2", "active"),
    ("COC(=O)c1c(C(F)F)nc(C(F)(F)F)c(C2=NCCS2)c1CC(C)C", "inactive"),
    ("Nc1cnn(-c2ccccc2)c(=O)c1Cl", "inactive"),
    ("COC(=O)NC(=S)Nc1ccccc1NC(=S)NC(=O)OC", "inactive"),
    ("CCCCC(C#N)(Cn1cncn1)c1ccc(Cl)cc1 (configuration not stated)", "inactive"),
    ("CC(C)Oc1cccc(NC(=O)c2ccccc2C(F)(F)F)c1", "inactive"),
    ("CC(C)C1(C)N=C(c2ncccc2C(=O)O)NC1=O (configuration not stated)", "inactive"),
    ("CC(C)=CC1C(C(=O)OCc2coc(Cc3ccccc3)c2)C1(C)C (configuration not stated)", "inactive"),
    ("Cc1ccc(N=CN(C)C=Nc2ccc(C)cc2C)c(C)c1", "inactive"),
    ("COP(=O)(OC)O/C(C)=C/C(=O)N(C)C", "inactive"),
]

###

- Experimental Protocol: CCTE_Mundy_HCI_hNP1_Casp3_7: CCTE's Caspase-Glo 3/7 Assay in human neuroprogenitor cells for Apoptosis, Mundy Lab (AID 2284240)
The source made the active and inactive calls. Rule for the calls: active = hit-call score of the fitted dose curve at least 0.9, where 1 is the maximum; inactive = score below 0.9.
Outcome codes: Y (active), N (inactive)

# Compound, Category
data = [
    ("C=C(C)CN(CC)c1c([N+](=O)[O-])cc(C(F)(F)F)cc1[N+](=O)[O-]", "Y"),
    ("COP(=O)(OC)O/C(C)=C/C(=O)N(C)C", "N"),
    ("CN/C(=N\\[N+](=O)[O-])NCc1cnc(Cl)s1", "N"),
    ("CS(=O)(=O)c1ccc(C(=O)C2C(=O)CCCC2=O)c([N+](=O)[O-])c1", "N"),
    ("CNC(=O)Oc1cccc2ccccc12", "N"),
    ("CC1(C)C(C=C(Cl)Cl)C1C(=O)OC(C#N)c1cccc(Oc2ccccc2)c1 (configuration not stated)", "N"),
    ("O=C(Nc1ccccc1-c1ccc(Cl)cc1)c1cccnc1Cl", "N"),
]

###

- Read-out: MYC, MYC (gene 4609)
- Experimental Protocol: LTEA_HepaRG_MYC: Life Technologies and Expression Analysis (LTEA) Assay for MYC using HepaRG (AID 2283518)
- Measurement Context: mRNA level, 48 h; actives raise or lower the signal
Activity calls are given as the source filed them. How the source made its calls: active means hit-call score of the fitted dose curve at least 0.9, where 1 is the maximum; inactive means score below 0.9.
Labels: yes (active), no (inactive)

# Compound, Category
rows = [
    ("CN=C=S", "no"),
    ("Cc1nc(N(C)C)nc(OC(=O)N(C)C)c1C", "no"),
    ("CCN(CC)C(=O)C(C)Oc1cccc2ccccc12 (stereo not drawn)", "no"),
    ("Cc1cc(C)nc(Nc2ccccc2)n1", "no"),
    ("CN/C(=N\\[N+](=O)[O-])NCc1cnc(Cl)s1", "no"),
    ("COP(=S)(OC)Oc1ccc([N+](=O)[O-])c(C)c1", "no"),
    ("CS(=O)(=O)c1ccc(C(=O)C2C(=O)CCCC2=O)c([N+](=O)[O-])c1", "no"),
    ("CCCN(CC)CC1COC2(CCC(C(C)(C)C)CC2)O1 (stereo not drawn)", "no"),
    ("CC(C)N1C(=O)c2ccccc2NS1(=O)=O", "no"),
    ("Cn1c(-c2ccccc2)cc(-c2ccccc2)[n+]1C", "yes"),
    ("CCOP(=S)(OCC)Oc1nc(Cl)n(C(C)C)n1", "no"),
    ("CCCC(=NOCC)C1=C(O)CC(CC(C)SCC)CC1=O (stereo not drawn)", "no"),
    ("COC(=O)c1c(C(F)F)nc(C(F)(F)F)c(C2=NCCS2)c1CC(C)C", "no"),
]
